Readings of pIC50 for the listed molecules
target: recombinant human Mcl-1 (residues 171-327) / Bim interaction (Homo sapiens (Human), UniProt Q07820); test: biochemical; assay type: binding; conditions: 0.1 nM Mcl-1(171-327), 0.05 nM biotin-Bim (51-76); read-out: Mcl-1 HTRF IC50
Sequence (Q07820 171-327): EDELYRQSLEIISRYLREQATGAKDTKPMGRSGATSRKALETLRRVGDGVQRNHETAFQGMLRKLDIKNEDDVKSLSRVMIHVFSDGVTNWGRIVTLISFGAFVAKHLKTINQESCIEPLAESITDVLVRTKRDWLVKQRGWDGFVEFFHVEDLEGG
pIC50: −log10 of the molar value.
Measure Name: pIC50

COCCCN1CCN(C[C@]2(OC)/C=C/C[C@H](C)[C@@H](C)S(=O)(=O)NC(=O)c3ccc4c(c3)N(C[C@@H]3CC[C@H]32)C[C@@]2(CCCc3cc(Cl)ccc32)CO4)CC1 ... 9.97
C[C@@H]1[C@@H](C)C/C=C/[C@](O)(CN(C)CCO)[C@@H]2CC[C@H]2CN2C[C@@]3(CCCc4cc(Cl)ccc43)COc3ccc(cc32)C(=O)NS1(=O)=O ... 8.77
CO[C@]1(CN2CCN3CCC[C@@H]3C2)/C=C/C[C@H](C)[C@@H](C)S(=O)(=O)NC(=O)c2ccc3c(c2)N(C[C@@H]2CC[C@H]21)C[C@@]1(CCCc2cc(Cl)ccc21)CO3 ... 9.65
CO[C@]1(CN2CCN3CCN(S(C)(=O)=O)C[C@@H]3C2)/C=C/C[C@H](C)[C@@H](C)S(=O)(=O)NC(=O)c2ccc3c(c2)N(C[C@@H]2CC[C@H]21)C[C@@]1(CCCc2cc(Cl)ccc21)CO3 (single isomer, unassigned) [Example 237] ... 9.89
CO[C@]1(CN2CCC(N3CCOCC3)CC2)/C=C/C[C@H](C)[C@@H](C)S(=O)(=O)NC(=O)c2ccc3c(c2)N(C[C@@H]2CC[C@H]21)C[C@@]1(CCCc2cc(Cl)ccc21)CO3 ... 9.31
CO[C@]1(CN2CCC2)/C=C/C[C@H](C)[C@@H](C)S(=O)(=O)NC(=O)c2ccc3c(c2)N(C[C@@H]2CC[C@H]21)C[C@@]1(CCCc2cc(Cl)ccc21)CO3 ... 8.42
CO[C@@]1(CN2CC(N3CCOCC3)C2)/C=C/C[C@H](C)[C@@H](C)S(=O)(=O)NC(=O)c2ccc3c(c2)N(C[C@@H]2CC[C@H]21)C[C@@]1(CCCc2cc(Cl)ccc21)CO3 ... 10.16
CO[C@@]1(CN2CCN(Cc3ncon3)CC2)/C=C/C[C@H](C)[C@@H](C)S(=O)(=O)NC(=O)c2ccc3c(c2)N(C[C@@H]2CC[C@H]21)C[C@@]1(CCCc2cc(Cl)ccc21)CO3 ... 9.84
C[C@@H]1[C@@H](C)C/C=C/[C@]2(CNCCO2)[C@@H]2CC[C@H]2CN2C[C@@]3(CCCc4cc(Cl)ccc43)COc3ccc(cc32)C(=O)NS1(=O)=O ... 8.33
CCCO[C@]1(CN2CCN3CCOC[C@@H]3C2)/C=C/C[C@H](C)[C@@H](C)S(=O)(=O)NC(=O)c2ccc3c(c2)N(C[C@@H]2CC[C@H]21)C[C@@]1(CCCc2cc(Cl)ccc21)CO3 ... 9.92
